# T/C per entry
tested on: P388 leukemia ip, CD2F1 mice, survival T/C; assay: NCI In Vivo Anticancer Drug Screen. Data for tumor model P388 Leukemia (intraperitoneal) in CD2F1 (CDF1) mice; conditions: endpoint: median survival time; dose: 25.0 mg/kg/injection; schedule: Q04DX003 (ip); vehicle: saline with Tween-80; higher = longer survival
Toxic doses and inconclusive results are not listed.
recorded metric: T/C

INSERT INTO results (molecule, observed_value) VALUES
  ('C[n+]1c2ccccc2cc2ccccc21', '86 % of control'),
  ('O=C(Nc1ccc2c(c1)OCO2)O/N=C1\C(=O)Nc2ccccc21', '100 % of control'),
  ('N#CCc1ccc(Cl)c(Cl)c1', '100 % of control'),
  ('CC(C)N=Cc1ccccc1O.CC(C)N=Cc1ccccc1O.[Cu]', '100 % of control'),
  ('CS(=O)(=O)OCC(=O)NCCNC(=O)COS(C)(=O)=O', '108 % of control'),
  ('C=C1CC2(CCOc3ccc(Cl)cc32)OC1=O (configuration not stated)', '110 % of control'),
  ('COc1cc(/C=C(/C)[N+](=O)[O-])cc(Br)c1OC', '108 % of control');

----------
system: P388 leukemia ip, CD2F1 mice, survival T/C; experiment: NCI In Vivo Anticancer Drug Screen. Data for tumor model P388 Leukemia (intraperitoneal) in CD2F1 (CDF1) mice; conditions: endpoint: median survival time; dose: 12.5 mg/kg/injection; schedule: Q01DX009 (ip); vehicle: Klucel (hydroxypropylcellulose) (HPC)
Inconclusive results and toxic doses are left out. How the source made its calls: active means survival T/C of 150% or more; inactive means T/C below 125% in these data.
Outcome codes: active, inactive

INSERT INTO measurements (compound, category_label) VALUES
  ('C=CCNSc1cccc([N+](=O)[O-])c1', 'inactive'),
  ('[O-][n+]1nc2ccccc2c2ccccc21', 'inactive'),
  ('COc1ccc(N2CC[N+](c3ccc(N(C)C)cc3)=C2C2=[N+](c3ccc(N(C)C)cc3)CCN2c2ccc(OC)cc2)cc1', 'inactive'),
  ('CCCC(C)C(CC)C(=O)NC(N)=O (centres undefined)', 'inactive'),
  ('O=C(N/N=C\c1ccc(N(CCCl)CCCl)cc1)c1cccnc1', 'inactive'),
  ('C=C1CC/C=C(\C)CCC2C1CC2(C)C (centres undefined)', 'inactive'),
  ('CCC(=O)NC1=C(N2CC2C)C(=O)C(NC(=O)CC)=C(N2CC2C)C1=O (centres undefined)', 'active'),
  ('CN(C)c1cc(N(C)C)c2ccccc2n1', 'inactive'),
  ('C1CCC2[N-]CC3CCCCC3[N-]CC3CCCCC3[N-]CC3CCCCC3[N-]CC2C1.[Cu+2].[O-][Cl+3]([O-])([O-])O (centres undefined)', 'inactive');

----------
system: P388 leukemia ip, CD2F1 mice, survival T/C; assay: NCI In Vivo Anticancer Drug Screen. Data for tumor model P388 Leukemia (intraperitoneal) in CD2F1 (CDF1) mice; details: endpoint: median survival time; dose: 40.0 mg/kg/injection; schedule: Q01DX009 (ip); vehicle: saline with Tween-80; higher = longer survival
Toxic doses and inconclusive results are not listed.
recorded metric: T/C

INSERT INTO results (compound, recorded_metric, observed_value) VALUES
  ('O=C1c2c3c(c4c(c2C(=O)c2c5c(c6c(c21)CCC6)CCC5)CCC4)CCC3', 'T/C', '99 % of control'),
  ('CN(C)c1nc(N(C)C)nc(N(C)C)n1', 'T/C', '109 % of control'),
  ('O=C(O)C1=COC(OC2OC(CO)C(O)C(O)C2O)C2C(CO)=CCC12 (centres undefined)', 'T/C', '95 % of control'),
  ('CC(=O)OC1c2c(C)coc2C(=O)C23OC2CCC(C)C13C (centres undefined)', 'T/C', '96 % of control');

----------
system: P388 leukemia ip, CD2F1 mice, survival T/C; experiment: NCI In Vivo Anticancer Drug Screen. Data for tumor model P388 Leukemia (intraperitoneal) in CD2F1 (CDF1) mice; conditions: endpoint: median survival time; dose: 30.0 mg/kg/injection; schedule: Q01DX005 (ip); vehicle: saline with Tween-80; higher = longer survival
Toxic doses and inconclusive results are not listed.
recorded metric: T/C

INSERT INTO assay_data (molecule, target_entity, observed_value) VALUES
  ('O=C(Nc1cc(Cl)ccc1Cl)Nc1ccc(Cl)cc1C(=O)c1ccccc1', 'P388 leukemia ip, CD2F1 mice, survival T/C', '90 % of control'),
  ('CC1(C)CC2(C)OC(=O)c3ccccc3N2C(=S)N1 (stereo unspecified)', 'P388 leukemia ip, CD2F1 mice, survival T/C', '95 % of control'),
  ('O=C(Nc1ccc(Cl)cc1)Nc1nnc2nc(C3(c4nc5nnc(NC(=O)Nc6ccc(Cl)cc6)n5[nH]c4=O)CCCC3=O)c(=O)[nH]n12', 'P388 leukemia ip, CD2F1 mice, survival T/C', '95 % of control'),
  ('O=C1CS(=O)(=O)C(c2ccccc2F)N1N1C(=O)CS(=O)(=O)C1c1ccccc1F (stereo unspecified)', 'P388 leukemia ip, CD2F1 mice, survival T/C', '89 % of control'),
  ('Cc1c(O)c2ccccc2c2c1sc(NCCO)[n+]2C', 'P388 leukemia ip, CD2F1 mice, survival T/C', '105 % of control'),
  ('O=C(CCCl)Nc1cccc(CCC(=O)c2cccc(NC(=O)CCCl)c2)c1', 'P388 leukemia ip, CD2F1 mice, survival T/C', '103 % of control');

----------
tested on: P388 leukemia ip, CD2F1 mice, survival T/C; assay: NCI In Vivo Anticancer Drug Screen. Data for tumor model P388 Leukemia (intraperitoneal) in CD2F1 (CDF1) mice; conditions: endpoint: median survival time; dose: 50.0 mg/kg/injection; schedule: Q01DX001 (ip); vehicle: Klucel (hydroxypropylcellulose) (HPC); higher = longer survival
Inconclusive results and toxic doses are left out.
# T/C per entry
recorded metric: T/C

INSERT INTO measurements (molecule, target_entity, observed_value) VALUES
  ('CCOC(=O)C12C(C(=O)OC)=CC(=O)NC1(OCC)OC(C)C2C (stereo unspecified)', 'P388 leukemia ip, CD2F1 mice, survival T/C', '94 % of control'),
  ('COc1ccc(CCNC2=C(/C=C\C(=O)O)C(=O)CC2)cc1OC', 'P388 leukemia ip, CD2F1 mice, survival T/C', '100 % of control'),
  ('CC1OC2=C(C(=O)c3ccccc3C2=O)C(O)C1O (stereo unspecified)', 'P388 leukemia ip, CD2F1 mice, survival T/C', '96 % of control'),
  ('COc1ccc2c(c1)C1(C)C(=O)OC(C2=O)C1C (stereo unspecified)', 'P388 leukemia ip, CD2F1 mice, survival T/C', '104 % of control'),
  ('CC1(C)CC(OP(=[Se])(OC2CC(C)(C)N(O)C(C)(C)C2)c2ccccc2)CC(C)(C)N1O', 'P388 leukemia ip, CD2F1 mice, survival T/C', '105 % of control'),
  ('CCOC(=O)c1c(C2OC(CO)C(O)C2O)cn(C)c1-c1ccccc1 (stereo unspecified)', 'P388 leukemia ip, CD2F1 mice, survival T/C', '103 % of control');

----------
# T/C per entry
system: P388 leukemia ip, CD2F1 mice, survival T/C; assay: NCI In Vivo Anticancer Drug Screen. Data for tumor model P388 Leukemia (intraperitoneal) in CD2F1 (CDF1) mice; settings: endpoint: median survival time; dose: 100.0 mg/kg/injection; schedule: Q04DX003 (ip); vehicle: saline; higher = longer survival
Inconclusive results and toxic doses are left out.
recorded metric: T/C

INSERT INTO results (compound, observed_value) VALUES
  ('OCc1ccc(OCc2ccccc2)c(OCc2ccccc2)c1', '98 % of control'),
  ('O=C1CC(c2cccc(S(=O)(=O)O)c2)=NN1c1ccc([N+](=O)[O-])cn1', '108 % of control'),
  ('CC1CCCC2CC3CCCCC3OCN12 (centres undefined)', '109 % of control'),
  ('[CH3][Ge]([CH3])([Cl])[c]1cc[c]([Ge]([CH3])([CH3])[Cl])cc1', '89 % of control'),
  ('CSC(=S)/C=C(\O)c1ccccc1', '95 % of control'),
  ('COC(CN(C)CC(OC)OC)OC', '95 % of control'),
  ('OCC(F)(F)C(F)(F)C(F)(F)F', '104 % of control'),
  ('O=C(O)CC[S-].[Ag+]', '100 % of control'),
  ('CCOC(=O)/C(=C/c1ncnc2nc[nH]c12)C(F)(F)C(=O)OCC', '99 % of control'),
  ('Cc1ccc2c3c1CCCN3CCC2', '112 % of control'),
  ('C=CCOC(OCC=C)C(OCC=C)OCC=C', '100 % of control'),
  ('CC(C)(CN)SCc1ccccc1', '90 % of control'),
  ('O=S(=O)(O)/[N+]([O-])=N/O', '100 % of control'),
  ('CC1(C)SC(=O)C(=O)S1', '103 % of control');
